Below, each of the variants is paired with its reported normalized RNA/DNA level with ligand (log10) value.
B1: library; a variant is named by its letters at N, in order (parent)
chain: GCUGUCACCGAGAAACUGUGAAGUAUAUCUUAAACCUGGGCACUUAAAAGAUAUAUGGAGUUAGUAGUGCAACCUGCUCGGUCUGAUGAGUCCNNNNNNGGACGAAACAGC

Variants of: B1
Test: normalized RNA/DNA level with ligand (relative to sTRSVctl = 100) (log10 (% of sTRSVctl)); HEK293T; ligand: cyclic di-GMP (c-di-GMP-II aptamer); ligand concentration (+) RNA-Seq: 1 mM; higher = less ribozyme self-cleavage, higher mRNA level
Details: reporter: mCherry (pCS4076), ligand present: yes
Form: value (number only, do not type unit).

Example entries and their recorded answers appear below.
Variant id: AACAAU
Value: 1.71
//
Variant id: UAUGGA
Value: 1.73
//
Variant id: AGCAGG
Value: 1.85
//
Variant id: AACGUA
Value: 1.73
//
Variant id: CAGACU
Value: 1.72

**Query** Requested read-out: normalized RNA/DNA level with ligand (log10). Entry: UUAGUG
**Result** 1.81

**Query** Record request: normalized RNA/DNA level with ligand (log10) value, item CUUCCA
**Result** 1.78

**Query** Query (variant): AUACGA ; field requested: normalized RNA/DNA level with ligand (log10)
**Result** 1.67

**Query** Item under review: AGCAUU . Reported normalized RNA/DNA level with ligand (log10)?
**Result** 1.84

**Query** # lookup: normalized RNA/DNA level with ligand (log10) of UGGUUU
**Result** 1.88
